Test system: MS2 coat protein
Experiment: apparent Kd, MS2 coat protein; higher = weaker binding; RNA-MaP array
Conditions: designed as: ON switch for flavin mononucleotide; no ligand
Quantity Measured: apparent Kd
Please state the value followed by its unit.

Examples with answers:
INSERT INTO assay_data (seq, observed_result) VALUES
  ('AUUGAACAUGAGGAUCACCCAUGUGCGGGUGGUAUAGGAUAUGCAGGAUCCUAAGAGUAAGCAGAAGGAUACACCG', '0.445 µM'),
  ('ACCCGACAUGAGGAUCACCCAUGUGGUUUCGGUCGAGGAUAUUCAAUCUGAAUUAUGUAGGAAGAAGGCGAUACCC', '0.173 µM'),
  ('AACAAAUGGGAAGGAUAUCGUUACAUGAGGAUCACCCAUGUCUACCUUGGGAGCGGUAGCUAUGUCGAGAAGGUCCAUGCGCGA', '0.394 µM');

Now, please, on to the next sequence.
Q) Query apparent Kd on MS2 coat protein for `GCGCCAAGUAAGAAGGGCUCAAAGGAAAACCUAGACUUCACUACAUGAGGAUCACCCAUGUCUCAGCAGGAUAUUAUCGGUCAA`
A) 0.0222 µM

----------
Below is a list of entries, each paired with its recorded apparent Kd value.
Tested on: MS2 coat protein
Assay: apparent Kd, MS2 coat protein; higher = weaker binding; RNA-MaP array; FMN 200 µM where present
Details: ligand present: flavin mononucleotide; designed as: OFF switch for flavin mononucleotide
Provide only the numeric value, understood in nM.

INSERT INTO results (seq, u, observed_result) VALUES
  ('CUGUACAUAGGAUAUAGUUGCUUUUACAUGAGGAUCACCCAUGUCACUCCUCUCUCUCUUCUAGAAGGAUGUUUCU', 'nM', 53.8);

Q) Looking for the measured apparent Kd of `AAAACGGUAGGAUAUACAUGAGGAUCACCCAUGUUAAAUUUAAAAAUAAAAUUAAAAUGUAGAAGGACCAAAAA` , can you help?
A) 32.3

Q) Would you kindly share the measured apparent Kd for `UUACUGAUAUAGAAGGGUAUAUGGGAAUUACAUGAGGAUCACCCAUGUUUUAUAGGAUAUGUAUAUAGUAUUUAAUCAAGUUUA` ?
A) 27.1

Q) Name the reported apparent Kd value associated with the sequence `CGGAGGUCAGGAUAUGCAUGGCGGGACUUGCGUCGUGGCGUGCAGAAGGGACAUGAGGAUCACCCAUGUGGAGU`
A) 216

Q) Look up apparent Kd for this sequence: `CUGGUGUCAGGAUAUGCAUAGCAGUGACCGGAACCCGGUCAGCAGAAGGGACAUGAGGAUCACCCAUGUUAAUA`
A) 57.7

Q) Requested read-out: apparent Kd. Entry: `AAUAACAGAGGAUAUACUAUUUUAUGUGUUUAUUGUUUUAAACAUGAGGAUCACCCAUGUAGAAGGCUGAUUGA`
A) 114

Q) Data request, read-out apparent Kd, for `UUUUAACAUGAGGAUCACCCAUGUGAGGAUAUCGAAAUUUAUAUUAAUAUUAAUAAUACGAGAAGGCACAUUUU`
A) 79.8

----------
System: MS2 coat protein
Assay: apparent Kd, MS2 coat protein; higher = weaker binding; RNA-MaP array; theophylline 2 mM where present
Settings: designed as: ON switch for theophylline; no ligand
Quantity Measured: apparent Kd (nM)
Answer format: numeric, nM implied, no suffix.

Worked cases, apparent Kd given:
INSERT INTO results (seq, quantity_measured, u, observed_result) VALUES
  ('AACCGAGGCUAUCCACAAAGAAAAUGUGAUACCAGAAUAAUUUUAUUCCCUUGGCAGCAUGACAUGAGGAUCACCCAUGUGUCUU', 'apparent Kd', 'nM', 32.3),
  ('AAGGUGAUCCGUGAUACCAGCUCAACAUGAGGAUCACCCAUGUAACGGACGAAAGUCCGGAGCCCUUGGCAGCACGGUAAUAAUA', 'apparent Kd', 'nM', 11.2),
  ('GGUAGCAGGACUGAUACCAGUCCAGCGAAUCAUACGACGCAACAUGAGGAUCACCCAUGUGACCCUUGGCAGCAGUCUGCUACCG', 'apparent Kd', 'nM', 25.4);

Q) Entry `UAAAACAUGAGGAUCACCCAUGUAAUUGAUACCAGAGUGAUGAUCCUCCCUUGGCAGCAAAUAACGCAUUGGAAACAAUGCGAAA` : reported apparent Kd = ?
A) 56.4

Q) I'd like to know its apparent Kd. The sequence in question is `ACAUGUCUUAUAGAUACCAGACAGGACAUGAGGAUCACCCAUGUAAUGUAUACAUGCAGAGUCCCUUGGCAGCUAAGGUCAUAGA`
A) 77.6
